// reported geometric mean MFI fold change over Jurkat parental per item
target: T1, huCD33-G69 stably expressed on Jurkat cells (human, UniProt P20138 18-364); experiment: FACS on cells;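 further: fixed Jurkat cells bearing either CD33 variant, barcoded by dye, exposed to myc-tagged scFv periplasmic extracts, detected with anti-myc PE antibody and read by flow cytometry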
T1 construct: whole, on cells; >200,000 receptors per cell; also called CD33 Mutant; CD33 R69G
T1 sequence (P20138 18-364 R69G): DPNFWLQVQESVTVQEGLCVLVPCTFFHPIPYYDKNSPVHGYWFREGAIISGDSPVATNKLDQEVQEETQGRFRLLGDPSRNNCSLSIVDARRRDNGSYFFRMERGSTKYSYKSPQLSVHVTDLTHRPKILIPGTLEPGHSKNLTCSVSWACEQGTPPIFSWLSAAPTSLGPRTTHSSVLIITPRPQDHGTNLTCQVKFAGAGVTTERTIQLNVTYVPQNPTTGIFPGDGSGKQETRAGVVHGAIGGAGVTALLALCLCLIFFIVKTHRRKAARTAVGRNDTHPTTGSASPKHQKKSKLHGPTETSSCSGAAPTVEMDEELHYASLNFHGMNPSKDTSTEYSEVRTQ

Study these solved cases before continuing.
Polypeptide No. 26 (scFv, V domains shown, scFv) VH: QVQLVQSGAEVKKPGASVKVSCKASGYTFTENEMHWVRQAPGQGLEWMGWMNPNSGNTGYAQKFQGRVTMTRDTSTSTVYMELSSLRSEDTAVYYCAREGGDWPYYYMDVWGKGTTVTVSS VL: DIQMTQSPSSLSASVGDRVTITCQASQDIRNYLNWYQQKPGKAPKLLIYAASSLQSGVPSRFSGSGSGTDFTLTISSLQPEDFATYYCQQTSSTPLTFGPGTKVDIKR | 2 to 10 fold
Polypeptide No. 33 (scFv, V domains shown, scFv) VH: QVQLVQSGAEVKKPGASVKVSCKASGYTFTSYYMHWVRQAPGQGLEWMGIIDPSGGSTNYAQKFQGRVTMTRDTSTSTVYMELSSLRSEDTAVYYCARDYYGSGSYYGLDYWGRGTLVTVSS VL: DIQMTQSPSSLSASVGDRVTITCRASQGISNNLNWYQQKPGKAPKLLIYDASNLETGVPSRFSGSGSGTDFTLTISSLQPEDFATYYCQQANSFPLTFGPGTKVDIKR | > 30 fold

Requested read-out: geometric mean MFI fold change over Jurkat parental. Entry: Polypeptide No. 32 (scFv, V domains shown, scFv) VH: EVQLLESGGGLVQPGGSLRLSCAASGFTFSSYGMHWVRQAPGKGLEWVSSISGSGDTTYYADSVKGRFTISRDNSKNTLYLQMNSLRAEDTAVYYCARDNPYGDYGGSFDYWGQGTLVTVSS VL: EIVMTQSPATLSVSPGERATLSCRASQSVSSSYLAWYQQKPGQAPRLLIYATSTRATGIPARFSGSGSGTEFTLTISSLQSEDFAVYYCQQYGSLPLTFGQGTKVEIKR
10 to 30 fold
